Molecular target: p38 (Homo sapiens, UniProt Q16539)
Sequence (Q16539 whole entry): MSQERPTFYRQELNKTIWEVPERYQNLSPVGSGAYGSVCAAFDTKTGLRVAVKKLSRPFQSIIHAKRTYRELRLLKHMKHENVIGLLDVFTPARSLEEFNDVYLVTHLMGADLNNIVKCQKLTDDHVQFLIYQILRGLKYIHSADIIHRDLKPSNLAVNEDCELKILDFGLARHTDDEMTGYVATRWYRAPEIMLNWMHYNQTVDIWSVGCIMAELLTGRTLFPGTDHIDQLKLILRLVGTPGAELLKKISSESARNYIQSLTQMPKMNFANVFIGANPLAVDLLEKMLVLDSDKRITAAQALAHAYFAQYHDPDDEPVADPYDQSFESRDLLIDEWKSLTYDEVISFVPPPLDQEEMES
Listed here: items and their measured IC50.

[Q] Consider the compound shown here: `Cc1ccc(NC(=O)Nc2sc(C(C)(C)C)cc2C(=O)N2CCN(C)C(=O)C2(C)C)cc1-c1ccc(C[N+]2([O-])CCOCC2)[n+]([O-])c1` What is its recorded IC50?
[A] < 1000 nM

----------
Consider compounds characterized by their IC50 with p38 (Homo sapiens).

Please review the following examples before continuing.
smiles_data	observable	result
Cc1ccc(NC(=O)Nc2sc(C(C)(C)C)cc2C(=O)N2CCNC(=O)C2(C)C)cc1C#CCN1CCN(C)CC1	IC50	< 100 nM
COCCOc1ccc(-c2cc(NC(=O)Nc3sc(C(C)(C)C)cc3C(=O)N3CCN(C)C(=O)C3(C)C)ccc2C)cn1	IC50	< 100 nM

Then there is this compound:
[Q] Can you look up the measured IC50 of `Cc1ccc(NC(=O)Nc2cn(C(C)(C)C)nc2C(=O)N2CCNC(=O)C2(C)C)cc1-c1ccc(CN2CCOCC2)cn1` for me?
[A] < 100 nM
